# Tested on: M14 melanoma
# RUN DESCRIPTION: NCI-60 one-dose screen, 48 h
# MEASUREMENT SETUP: 10 µM unless noted
This is part of a sample that, as a whole, favours compounds with a hit. Of some 83,000 tested, about 20% had one in any assay. Calls of active or inactive are those of the source. How the source made its calls: active means growth percent below 10; inactive means the rest.
// classify into 1 (yes) = active, 0 (no) = inactive

Field: example entries. Status: answers known.
COMPOUND | CLASS
Oc1ccc(-c2nnc3c4[nH]ccc4ncn23)cc1 | 0 (no)
C=C1C(=O)O[C@H]2[C@H]1CC/C(COC(=O)NCc1[nH]nc3ccccc13)=C\CC[C@@]1(C)O[C@@H]21 | 0 (no)
CC(C)c1ccc2c(c1)CCC1C2CCCC1(C)NCc1ccccc1 (stereo not given) | 1 (yes)

Hi, sorry to bother you, what did the test record for `C=C[C@H]1CCC/C=C/[C@@H]2C[C@H](O)C[C@H]2[C@H](O)/C=C/C(=O)O1` ?
1 (yes)

Hi, sorry to bother you, what did the test record for `C=C1C(=O)O[C@H]2[C@H]1CC/C(COC(=O)NCc1c[nH]c3ccc(OC)cc13)=C\CC[C@@]1(C)O[C@@H]21` ?
1 (yes)

Hi, sorry to bother you, what did the test record for `Cc1ccc(NC(=O)c2cc(NCc3cc(O)ccc3O)ccc2O)cc1` ?
0 (no)

Hi, sorry to bother you, what did the test record for `O=C1Nc2ccc(Cl)cc2/C1=C\c1c(-c2ccc(F)cc2)nc2ccccn12` ?
1 (yes)

Hi, sorry to bother you, what did the test record for `N#CCCn1cnc2c(N)ncnc21` ?
0 (no)

Hi, sorry to bother you, what did the test record for `CC(C)(CCc1ccccn1)C(=O)CCCc1ccccn1` ?
0 (no)

Hi, sorry to bother you, what did the test record for `COc1cc(OC)c(Cl)cc1N` ?
0 (no)

---

# System: UACC-62 melanoma
# RUN DESCRIPTION: NCI-60 one-dose screen, 48 h (100 = growth as untreated, 0 = no growth, -100 = all killed)
# MEASUREMENT SETUP: 10 µM unless noted
# Method: Growth inhibition of the UACC-62 human tumor cell line is measured as a screen for anti-cancer activity. Cells are grown in 96 well plates and exposed to the test compound for 48 hours. Compounds are tested at a single concentration, which is 10^-5 M for most compounds. The reported endpoint is percent growth (GI% or GIPRCNT), where numbers from 0 - 100% represent growth inhibition, and numbers from -100% - 0 represent cell death. For example, a value of 40 represents 60% growth inhibition. […]
About 83,000 compounds went through this panel and 20% of them were active in at least one assay; those are over-represented in the sample as a whole.
TEST READOUT: growth (%)
Numbers only, in %.

Some solved entries appear below for comparison.
COMPOUND | growth [%]
O=C1/C(=C/c2ccccc2)SC(=Nc2ccccc2)N1Nc1ccccc1 | -4.34
CC(CN1CCN(CC(C)Nc2ccnc3cc(Cl)ccc23)CC1)Nc1ccnc2cc(Cl)ccc12 (centres undefined) | -62.7

Quick one: give me growth for each item below, same order please.
1. CCN(CC)CCNC(=O)n1cc(-c2ccncc2)c(-c2cc(Cl)cc(OC)c2)n1
2. c1cc(C2CCCCC2)ccc1-c1cnc2nonc2n1

1. 70.3
2. 8.73

---

# Test system: EKVX NSCLC
# RUN DESCRIPTION: NCI-60 one-dose screen, 48 h (100 = growth as untreated, 0 = no growth, -100 = all killed)
# MEASUREMENT SETUP: 10 µM unless noted
Compounds without any hit were thinned out: in the full panel of roughly 83,000, 20% have a hit.
// map growth to label using low = under 60%, mid = from 60% up to 80%, high = 80% and over

Entry `O=C(CSc1nc2c(n1Nc1ccccc1)-c1ccccc1SC2)Nc1nccs1` belongs to which category?
high

Entry `COc1ccc(CNc2c3ccccc3nc3ccc(OC)cc23)cc1` belongs to which category?
low

Entry `Cc1ccc(C)c(NC(=O)c2sc3c(=O)[nH]cnc3c2C)c1` belongs to which category?
high

Entry CC1OC(n2c3ccccc3c3c4c(c5c6ccccc6[nH]c5c32)C(=O)N(CCN2CCOCC2)C4=O)CC(O)C1O (configuration not stated) belongs to which category?
low

Entry `COc1nccc2c(Sc3ccccc3)nc(N)nc12` belongs to which category?
high

Entry `COc1ccc(-c2cc(C(=O)Nc3ccc(C)cc3)nc3[nH]c(=O)sc23)cc1` belongs to which category?
mid
